- System: Staphylococcus aureus ATCC 2592
property-name: MIC

// MIC lookup, key: CC(C)C[C@H](NC(=O)[C@H](CCCCN)NC(=O)[C@H](CCCN=C(N)N)NC(=O)[C@H](Cc1c[nH]c2ccccc12)NC(=O)[C@H](Cc1c[nH]c2ccccc12)NC(=O)[C@H](CCCCN)NC(=O)[C@H](CCCCN)NC(=O)[C@H](Cc1c[nH]c2ccccc12)NC(=O)[C@H](CCCN=C(N)N)NC(=O)[C@H](CCCCN)NC(=O)[C@@H](N)C(C)C)C(=O)N[C@@H](CCCCN)C(=O)N[C@@H](CCCCN)C(=O)N[C@@H](CO)C(=O)N[C@H](C(N)=O)C(C)C [VKRWKKWWRKLKKSV] ≥ 48.6 µM

* * *

- System: Escherichia coli
Attribute: MIC
Provide only the numeric value, understood in µM.

Would you please look over these solved cases?
smiles=CC[C@H](C)[C@H](NC(=O)[C@H](CCCN=C(N)N)NC(=O)[C@H](Cc1c[nH]c2ccccc12)NC(=O)[C@H](CCC(N)=O)NC(=O)[C@@H](N)C(C)C)C(=O)N[C@@H](CCCN=C(N)N)C(=O)N[C@H](C(=O)N[C@@H](C)C(=O)N[C@H](C(=O)N[C@H](C(=O)N[C@@H](CCCN=C(N)N)C(=O)N[C@@H](CCCCN)C(=O)O)[C@@H](C)CC)C(C)C)C(C)C reported=42
smiles=CC[C@H](C)[C@H](N)C(=O)N[C@@H](CCCN=C(N)N)C(=O)N1CCC[C@H]1C(=O)N[C@H](C(=O)N[C@H](C(=O)N[C@@H](CCCN=C(N)N)C(=O)N1CCC[C@H]1C(=O)N[C@H](C(=O)N[C@H](C(=O)N[C@@H](CCCN=C(N)N)C(=O)N1CCC[C@H]1C(=O)N[C@H](C(=O)N[C@H](C(=O)N[C@@H](CCCN=C(N)N)C(=O)N1CCC[C@H]1C(=O)N[C@H](C(N)=O)[C@@H](C)CC)[C@@H](C)CC)[C@@H](C)CC)[C@@H](C)CC)[C@@H](C)CC)[C@@H](C)CC)[C@@H](C)CC reported=16
smiles=CC[C@H](C)[C@H](N)C(=O)N[C@@H](CC(N)=O)C(=O)N[C@@H](Cc1c[nH]c2ccccc12)C(=O)N[C@@H](CCCCN)C(=O)N[C@@H](CCCCN)C(=O)N[C@@H](CC(C)C)C(=O)NCC(=O)N[C@@H](CCCCN)C(=O)N[C@@H](CCCCN)C(=O)N[C@H](C(=O)N[C@@H](CC(C)C)C(=O)NCC(=O)N[C@@H](C)C(=O)N[C@@H](CC(C)C)C(N)=O)[C@@H](C)CC reported=43
smiles=CC[C@H](C)[C@H](NC(=O)[C@H](CCC(N)=O)NC(=O)[C@@H](N)CCCN=C(N)N)C(=O)N[C@@H](Cc1c[nH]c2ccccc12)C(=O)N[C@@H](Cc1c[nH]c2ccccc12)C(=O)N[C@@H](Cc1c[nH]c2ccccc12)C(=O)N[C@@H](Cc1c[nH]c2ccccc12)C(=O)N[C@@H](CCC(N)=O)C(=O)N[C@@H](CCCN=C(N)N)C(N)=O reported=4.33

Lab note: need MIC for CC(C)C[C@H](NC(=O)[C@H](Cc1ccccc1)NC(=O)CNC(=O)[C@H](CC(C)C)NC(=O)[C@@H](N)Cc1ccccc1)C(=O)N[C@@H](Cc1ccccc1)C(=O)N[C@@H](CCCCN)C(=O)N[C@H](C(=O)N[C@@H](C)C(=O)N[C@@H](CO)C(=O)N[C@@H](CCCCN)C(=O)O)C(C)C on Escherichia coli, anyone have it? 79.6
